The binders listed here are annotated with their Kd.
Biological target: T1, human tenascin C (human, UniProt P24821 23-2201, limits assumed)
T1 construct: Coated on ELISA plates at 100 nM; also called TnC; Tnc
T1 sequence (P24821 23-2201 limits assumed): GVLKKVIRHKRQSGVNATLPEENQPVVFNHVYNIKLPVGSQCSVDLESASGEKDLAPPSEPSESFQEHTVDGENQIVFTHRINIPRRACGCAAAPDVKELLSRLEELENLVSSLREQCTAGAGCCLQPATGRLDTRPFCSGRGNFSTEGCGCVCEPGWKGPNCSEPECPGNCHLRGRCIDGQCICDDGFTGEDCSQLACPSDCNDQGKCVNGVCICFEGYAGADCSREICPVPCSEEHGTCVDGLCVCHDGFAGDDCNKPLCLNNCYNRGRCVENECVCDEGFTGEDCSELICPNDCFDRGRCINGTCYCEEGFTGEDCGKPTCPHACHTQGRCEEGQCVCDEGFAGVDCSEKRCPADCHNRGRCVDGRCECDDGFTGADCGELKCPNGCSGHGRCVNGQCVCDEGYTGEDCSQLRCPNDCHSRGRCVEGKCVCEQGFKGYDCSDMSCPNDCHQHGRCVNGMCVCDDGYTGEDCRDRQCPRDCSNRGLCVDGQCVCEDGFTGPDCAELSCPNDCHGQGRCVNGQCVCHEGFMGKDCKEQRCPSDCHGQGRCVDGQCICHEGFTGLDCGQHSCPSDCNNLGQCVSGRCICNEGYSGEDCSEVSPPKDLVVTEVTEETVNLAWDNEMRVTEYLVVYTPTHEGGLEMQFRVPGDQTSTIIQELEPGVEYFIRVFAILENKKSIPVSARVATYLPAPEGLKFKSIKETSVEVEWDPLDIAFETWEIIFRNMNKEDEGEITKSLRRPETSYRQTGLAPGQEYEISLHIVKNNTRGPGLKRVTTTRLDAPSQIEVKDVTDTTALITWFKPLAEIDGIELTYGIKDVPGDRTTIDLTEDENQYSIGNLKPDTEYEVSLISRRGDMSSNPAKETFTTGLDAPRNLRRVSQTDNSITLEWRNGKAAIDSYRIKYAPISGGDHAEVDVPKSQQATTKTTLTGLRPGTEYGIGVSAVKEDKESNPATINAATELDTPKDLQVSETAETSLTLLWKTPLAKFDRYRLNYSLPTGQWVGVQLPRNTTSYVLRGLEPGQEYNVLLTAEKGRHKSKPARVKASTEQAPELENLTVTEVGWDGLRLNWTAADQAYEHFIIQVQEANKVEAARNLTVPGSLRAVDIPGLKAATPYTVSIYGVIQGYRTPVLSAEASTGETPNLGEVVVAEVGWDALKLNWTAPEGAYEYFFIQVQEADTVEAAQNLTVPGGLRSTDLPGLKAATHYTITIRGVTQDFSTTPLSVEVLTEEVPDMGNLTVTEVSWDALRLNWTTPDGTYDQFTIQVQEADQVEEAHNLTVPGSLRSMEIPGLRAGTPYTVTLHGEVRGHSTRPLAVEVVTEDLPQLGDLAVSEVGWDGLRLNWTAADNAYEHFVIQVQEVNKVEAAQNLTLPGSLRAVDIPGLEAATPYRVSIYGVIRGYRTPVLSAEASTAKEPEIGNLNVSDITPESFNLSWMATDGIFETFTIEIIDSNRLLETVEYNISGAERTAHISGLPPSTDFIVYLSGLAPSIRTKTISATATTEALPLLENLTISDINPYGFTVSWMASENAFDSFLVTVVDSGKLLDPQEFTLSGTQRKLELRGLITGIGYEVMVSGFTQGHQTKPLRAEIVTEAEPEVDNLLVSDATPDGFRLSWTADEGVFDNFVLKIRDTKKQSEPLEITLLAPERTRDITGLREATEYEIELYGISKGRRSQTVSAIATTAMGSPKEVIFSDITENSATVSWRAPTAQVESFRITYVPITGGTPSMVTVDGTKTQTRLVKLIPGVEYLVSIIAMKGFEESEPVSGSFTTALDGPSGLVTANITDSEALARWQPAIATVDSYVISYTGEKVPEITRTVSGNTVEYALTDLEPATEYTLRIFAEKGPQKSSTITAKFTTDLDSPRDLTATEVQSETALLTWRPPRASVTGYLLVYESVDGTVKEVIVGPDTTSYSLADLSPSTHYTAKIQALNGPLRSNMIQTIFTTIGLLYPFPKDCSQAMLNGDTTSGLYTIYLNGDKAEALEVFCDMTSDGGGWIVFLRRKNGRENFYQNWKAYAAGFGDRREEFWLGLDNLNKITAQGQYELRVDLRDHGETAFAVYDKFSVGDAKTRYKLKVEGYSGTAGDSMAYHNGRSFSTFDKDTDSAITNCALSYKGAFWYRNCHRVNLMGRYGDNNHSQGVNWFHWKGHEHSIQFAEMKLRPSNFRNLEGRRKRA
Assay: ELISA; ECM protein coated at 100 nM, soluble protein 0-100 nM, one-site fit
parameter: Kd (nM)

binder: IL-1Ra/PIGF123-141 (other) MNHKVHHHHHHMRPSGKRPCKMQAFRIWDTNQKTFYLRNNQLIAGYLQGPNIKLEEKIDMVPIDLHSVFLGIHGGKLCLSCAKSGDDIKLQLEEVNITDLSKNKEEDKRFTFIRSEKGPTTSFESAACPGWFLCTTLEADRPVSLTNTPEEPLIVTKFYFQEDQRRRPKGRGKRRREKQRPTD
measuredNumber: 20.7

binder: IL-1Ra (murine wild-type interleukin-1 receptor antagonist) (ligand, also called wild-type IL-1Ra; IL-1 receptor antagonist) MRPSGKRPCKMQAFRIWDTNQKTFYLRNNQLIAGYLQGPNIKLEEKIDMVPIDLHSVFLGIHGGKLCLSCAKSGDDIKLQLEEVNITDLSKNKEEDKRFTFIRSEKGPTTSFESAACPGWFLCTTLEADRPVSLTNTPEEPLIVTKFYFQEDQ
measuredNumber: 113

binder: PDGF-BB (murine wild-type platelet-derived growth factor-BB) (ligand, UniProt P31240 82-190, looked up, also called wild-type PDGF-BB) SLGSLAAAEPAVIAECKTRTEVFQISRNLIDRTNANFLVWPPCVEVQRCSGCCNNRNVQCRASQVQMRPVQVRKIEIVRKKPIFKKATVTLEDHLACKCETIVTPRPVT
measuredNumber: 94.3

binder: PDGF-BB/PIGF123-141 (other, not shown: 6x histidine tag at the N-terminus) SLGSLAAAEPAVIAECKTRTEVFQISRNLIDRTNANFLVWPPCVEVQRCSGCCNNRNVQCRASQVQMRPVQVRKIEIVRKKPIFKKATVTLEDHLACKCETIVTPRPVTRRRPKGRGKRRREKQRPTD
measuredNumber: 25
